Assay: Organoid viability after treatment with training compounds
Details: human, human liver organoids (HLO)

| molecule | viability at 24 h, 130 µM, % |
| --- | --- |
| CCN(CC)C(=O)/C(C#N)=C/c1cc(O)c(O)c([N+](=O)[O-])c1 [Entacapone] | 85 |
